Tested on: EKVX
Assay: relative viability (nuclei count vs DMSO), 5 days (fraction); higher = more cells survive
Conditions: first compound 0.02 µM

[
  {
    "compound": "CCNC(=O)c1noc(-c2cc(C(C)C)c(O)cc2O)c1-c1ccc(CN2CCOCC2)cc1 [Luminespib] + NC(=O)Nc1cc(-c2cccc(F)c2)sc1C(=O)N[C@H]1CCCNC1 [AZD7762] (partner 0.2 µM)",
    "relative viability": 0.475
  },
  {
    "compound": "CCNC(=O)c1noc(-c2cc(C(C)C)c(O)cc2O)c1-c1ccc(CN2CCOCC2)cc1 [Luminespib] + CC(=O)Nc1cccc(-n2c(=O)n(C3CC3)c(=O)c3c(Nc4ccc(I)cc4F)n(C)c(=O)c(C)c32)c1 [Trametinib] (partner 0.02 µM)",
    "relative viability": 0.219
  }
]

* * *

Tested on: RERF-LC-KJ
Assay: relative viability (nuclei count vs DMSO), 5 days (fraction); higher = more cells survive
Details: first compound 0.253 µM

[
  {
    "compound": "Nc1cccc2c1CN(C1CCC(=O)NC1=O)C2=O (stereo not drawn) [Lenalidomide] + O=C(c1cc(Cc2n[nH]c(=O)c3ccccc23)ccc1F)N1CCN(C(=O)C2CC2)CC1 [Olaparib] (partner 8 µM)",
    "relative viability": 0.812
  },
  {
    "compound": "Nc1cccc2c1CN(C1CCC(=O)NC1=O)C2=O (stereo not drawn) [Lenalidomide] + CC(C)C[C@H](NC(=O)[C@H](Cc1ccccc1)NC(=O)c1cnccn1)B(O)O [Bortezomib] (partner 0.002 µM)",
    "relative viability": 1.13
  },
  {
    "compound": "Nc1cccc2c1CN(C1CCC(=O)NC1=O)C2=O (stereo not drawn) [Lenalidomide] + Nc1ncn([C@H]2C[C@H](O)[C@@H](CO)O2)c(=O)n1 [Decitabine] (partner 2 µM)",
    "relative viability": 0.717
  }
]

* * *

Reported relative viability by item:
System: PC-14
Test: relative viability (nuclei count vs DMSO), 5 days (fraction); higher = more cells survive
Conditions: first compound 0.002 µM

[
  {
    "compound": "CCNC(=O)c1noc(-c2cc(C(C)C)c(O)cc2O)c1-c1ccc(CN2CCOCC2)cc1 [Luminespib] + COc1cc2c(Oc3ccc(NC(=O)C4(C(=O)Nc5ccc(F)cc5)CC4)cc3F)ccnc2cc1OCCCN1CCOCC1 [Foretinib] (partner 0.25 µM)",
    "relative viability": 0.967
  },
  {
    "compound": "CCNC(=O)c1noc(-c2cc(C(C)C)c(O)cc2O)c1-c1ccc(CN2CCOCC2)cc1 [Luminespib] + Nc1ncn([C@H]2C[C@H](O)[C@@H](CO)O2)c(=O)n1 [Decitabine] (partner 2 µM)",
    "relative viability": 0.23
  },
  {
    "compound": "CCNC(=O)c1noc(-c2cc(C(C)C)c(O)cc2O)c1-c1ccc(CN2CCOCC2)cc1 [Luminespib] + COc1cccc2cc(-c3nc([C@H]4CC[C@H](C(=O)O)CC4)n4ncnc(N)c34)[nH]c12 [OSI-027] (partner 0.5 µM)",
    "relative viability": 0.918
  },
  {
    "compound": "CCNC(=O)c1noc(-c2cc(C(C)C)c(O)cc2O)c1-c1ccc(CN2CCOCC2)cc1 [Luminespib] + C[C@]1(O)C[C@@H](c2nc(-c3ccc4ccc(-c5ccccc5)nc4c3)c3c(N)nccn32)C1 [Linsitinib] (partner 1 µM)",
    "relative viability": 0.896
  }
]
